# protocol: Toxicity liver stage against HepG2, at 10uM
# Format: cell-based
# Parameters: test concentration 10 uM, cell line HepG2-A16-CD81EGFP
# experimentalConditions: human, HepG2-A16-CD81EGFP cells; read-out: INHIBITION

compound	cytotoxicity at 10 µM / %
Cc1cnn(CC2CCCN2Cc2cn3ccsc3n2)c1 (stereo unspecified)	-1.75
CNCCCNc1nc(C2CCCC2)nc2c1cnn2C	6.63
O=c1c2c[nH]c(N3CCOCC3)nc-2cn1C1CCS(=O)(=O)C1 (stereo unspecified)	3.41
CCn1ncc2c1C(COC)N(C(=O)c1ccc3c(c1)OCO3)CC2 (stereo unspecified)	8.1
CCOc1ncccc1CNC(=O)NC(C)Cn1cccn1 (stereo unspecified)	-15.7
NC(=O)C1CCN(c2ncc(-c3cnccn3)c([C@H]3CCCO3)n2)CC1	-0.24

---

# protocol: Toxicity liver stage against HepG2, at 10uM
# Type: cell-based
# Set-up: test concentration 10 uM, cell line HepG2-A16-CD81EGFP
# experimentalConditions: human, HepG2-A16-CD81EGFP cells; read-out: INHIBITION
assayMetric: cytotoxicity at 10 µM (%)

compound	unitName	reported
CCNC(=O)c1ccoc1CN1c2ccccc2CC1C (stereo not drawn)	%	-10.2
O=C(COc1cccc2c1CCC2=O)NCCOc1ccccc1	%	10.5
Cc1cc(S(=O)(=O)N2CCCN3CCCC3C2)ccc1F (stereo not drawn)	%	17
Cc1cc(C)nc(N2CCC(c3cc(CCO)[nH]n3)C2)n1 (stereo not drawn)	%	4.15
CN(Cc1cc[nH]n1)C(C(=O)O)c1ccc(Cl)cc1 (stereo not drawn)	%	0.595
O=C(c1ccco1)N1CCOCC2(C1)CN(c1ccccc1)C(=O)CO2 (stereo not drawn)	%	-10.1
CC(C)C(C(=O)N1CCN(Cc2ccncc2)CC1)n1cncn1 (stereo not drawn)	%	-13
CC[C@H](C)Nc1nccc(-c2cnc3sc(C)cn3c2=O)n1	%	-6.02
CCn1ncc(CN2CCC(c3ncc(Cl)cc3S(C)(=O)=O)CC2)c1C	%	3.5
N#CC1(NC(=O)c2cc(Cl)c3c(c2)OCCCO3)CCC1	%	-8.42
CC(NC(=O)Nc1ccc(F)c(F)c1)c1nc[nH]n1 (stereo not drawn)	%	0.185
CCc1nc(Nc2cccc(C(=O)NC)c2)c2c(n1)c(C)nn2CC	%	1.41
CC1N(c2cnn(C)c2)C(=O)COC12CCN(Cc1ccoc1)CC2 (stereo not drawn)	%	0.997
Cc1ccccc1CSc1nc(N)cc(N2CCC(CC(N)=O)CC2)n1	%	-10.4
CC(=O)N1CCOC2(CCCN(C(=O)c3ccc(Cl)cc3)C2)C1 (stereo not drawn)	%	-66.6
O=C(O)c1cccnc1CN(Cc1ccsc1)C1CC1	%	3.7
CCC1CN(CCC(=O)N(C)C)CCN1CCOC (stereo not drawn)	%	-6.34
c1csc(CN2CCC3(CCOCC3COCC3CC3)CC2)n1 (stereo not drawn)	%	5.02
CN1CCC(c2nnc(CN3CCCC3)n2C2CC2)CC1	%	-11.4
Cc1cc(NCc2cc3n(n2)CCCN(S(C)(=O)=O)C3)ncn1	%	-14.3
CN(Cc1ccc(-n2cccn2)cc1)C(=O)CCC(F)(F)F	%	-3.67
CCC(CC)n1nc(C)cc1NC(=O)CC1CCOCC1	%	-2.17
O=S(=O)(C1CC1)N1CCC2(CN(c3ncccn3)C2)C1	%	-98.4
COCCNC(=O)c1nnc2ccc(N3CCOCC3)cc2n1	%	10.8
CCc1cccc(N2CCC(NC(=O)c3ccoc3C)CC2)c1	%	-10.8
Cc1ncsc1CCN(C)Cc1cc2n(n1)CCN(S(C)(=O)=O)C2	%	-12.8
COc1ccc2c(c1)C(NCCc1ccccn1)CCCO2 (stereo not drawn)	%	-6.03
Cc1nn(C)c(N(C)C)c1CNCCCNS(C)(=O)=O	%	-5.98
